- System Tested: T1, SNTG1, Q9NSN8
- T1 sequence (Q9NSN8 52-150, limits assumed, looked up): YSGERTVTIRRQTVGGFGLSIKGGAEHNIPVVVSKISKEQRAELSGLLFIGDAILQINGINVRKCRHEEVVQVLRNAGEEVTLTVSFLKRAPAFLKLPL
- Assay Method Text: holdup assay
- Design: key: below the threshold = too weak to quantify, mostly under pKd 3.1 to 4
- Assay Conditions: plain residues with an end cap or a label only (N-terminal biotin on a linker: ado-ado)
Recorded Metric: pKd

Worked examples follow.
Give me measured pKd, please, for this binder: KIEDVEITLV [FCHSD2, O94868] 4.14

Provide pKd value for the following binder: PAALPESTHM [SLC9A3, P48764] below the threshold

Give the measured pKd for QKNKDREYYV [NRXN3, Q9HDB5] 3.58

Report pKd for RDYTQSSSSL [GRM5, P41594] below the threshold

Recall and state the measured pKd for RGKNRRQSIF [CDK18, Q07002] . below the threshold

Please turn your attention to the following entry.
Return pKd (reported value) for this binder: NSTHNLKDYV [CLDN20, P56880] below the threshold

Entry source: paper PMC9482650
